system: UACC-62 melanoma; assay: NCI-60 one-dose screen, 48 h; details: 10 µM unless noted
This is part of a sample that, as a whole, favours compounds with a hit. Of some 83,000 tested, about 20% had one in any assay. Calls of active or inactive are those of the source. Rule for the calls: active = growth percent below 10; inactive = the rest.
Outcome field: choose from active, inactive

Would you please look over these solved cases?
>>> class("O=C(NNc1ccc(-c2ccccc2)nn1)c1ccc(F)cc1")
"inactive"
>>> class("CCCCN(CCCC)CC(O)c1ccc(OCc2ccccc2)c2ccccc12 (stereo not given)")
"inactive"
>>> class("O=C(O)c1cn(C2CC2)c2cc(N3CCN(Cc4c(O)ccc5ccccc45)CC3)c(F)cc2c1=O")
"inactive"
>>> class("C=C(C)[C@@H]1CC[C@]2(COC(=O)c3ccccc3C(=O)O)CC[C@]3(C)[C@H](CC[C@@H]4[C@@]5(C)CC[C@H](OC(=O)c6ccccc6C(=O)O)C(C)(C)[C@@H]5CC[C@]43C)[C@@H]12")
"active"
>>> class("COc1cc2c(c(Br)c1N)-c1cc(Br)c(N)cc1C2=O")
"inactive"
>>> class("N#Cc1c(N2CCOCC2)nc(=S)[nH]c1-c1ccco1")
"inactive"
>>> class("O=C(O)c1cn(C2CC2)c2cc(N3CCN(Cc4cc(Cl)ccc4O)CC3)c(F)cc2c1=O")
"inactive"
>>> class("COc1cc(/C=C/C(=O)/C=C/c2ccc(-n3ccnc3C)cc2)ccc1O")
"inactive"

Consider now this further molecule.
Outcome logged for COc1cc(NCc2cn(-c3ccc(C(=O)O)cc3)nc2-c2ccc(C(=O)O)cc2)cc(OC)c1OC in this assay:
inactive

---

system: SNB-19 CNS; test: NCI-60 one-dose screen, 48 h; details: 10 µM unless noted
The panel holds about 83,000 compounds, 20% with a hit somewhere; the sample as a whole holds those more often. The source made the active and inactive calls. Rule for the calls: active = growth percent below 10; inactive = the rest.
Response enum: YES (active), NO (inactive)

Test call, this molecule: CC1Cc2c(ncnc2-n2cnc3ccccc32)N(C)c2ccccc21 (stereo not drawn)
NO

---

tested on: HOP-62 NSCLC; experiment: NCI-60 one-dose screen, 48 h; details: 10 µM unless noted
About 83,000 compounds went through this panel and 20% of them were active in at least one assay; those are over-represented in the sample as a whole. Active and inactive are the calls of the source. How the source made its calls: active means growth percent below 10; inactive means the rest.
API: response.call in label 1 (active), label 0 (inactive)

Field: example entries. Status: answers known.
>>> class("CCOc1ccc(S(=O)(=O)Nc2ccc3c(c2)N(S(=O)(=O)CC)CCC3)cc1")
"label 0"
>>> class("O=C1/C(=C\\c2cn(CC(O)CN3CCCCC3)c3ccccc23)c2ccccc2N1c1c(Cl)cccc1Cl (configuration not stated)")
"label 1"
>>> class("CC(=O)CC(=O)SC1=NCCS1")
"label 0"

Look up the recorded call for CC1(C(=O)O)CCC(N)(C(=O)O)C1(C)C (configuration not stated) in this test.
label 0

In this assay, the call recorded for Ic1ccc2[nH]cc(SSc3c[nH]c4ccc(I)cc34)c2c1 was what?
label 0

---

test system: UACC-257 melanoma; test: NCI-60 one-dose screen, 48 h (100 = growth as untreated, 0 = no growth, -100 = all killed); details: 10 µM unless noted
This is part of a sample that, as a whole, favours compounds with a hit. Of some 83,000 tested, about 20% had one in any assay. Calls of active or inactive are those of the source. Rule for the calls: active = growth percent below 10; inactive = the rest.
PROPERTY MEASURED: growth

Consider the following illustrative entries.
>>> value_observed("CN(C)CCOc1ccc(/C(=C(/CCCl)c2ccccc2)c2ccccc2)cc1")
"-52.4% (active)"
>>> value_observed("CSc1nc2c(c(=O)n1C)C1(C(=O)N(Cc3ccccc3)c3ccccc31)c1c(nc(SC)n(C)c1=O)N2")
"75.1% (inactive)"
>>> value_observed("CCCCCCCCN(CCCCCCCC)CC(O)c1ccc(Cl)c(C)c1Cl (stereo not given)")
"89.4% (inactive)"

Note growth for the molecule shown: C=C(C)[C@@H]1CC[C@]2(C(=O)OC)CC[C@]3(C)[C@H](CC[C@@H]4[C@@]5(C)CC/C(=N\OCCC(=NCCC#N)NOCCC#N)C(C)(C)[C@@H]5CC[C@]43C)[C@@H]12
8.82% [100 µM] (active)

Provide only the value of recorded growth for O=c1cc(-c2ccccc2)oc2cc(OCc3cn(Cc4ccc(F)cc4)nn3)cc(O)c12
86.3% [100 µM] (inactive)

---

test system: SNB-75 CNS; test: NCI-60 one-dose screen, 48 h (100 = growth as untreated, 0 = no growth, -100 = all killed); conditions: 10 µM unless noted
About 83,000 compounds went through this panel and 20% of them were active in at least one assay; those are over-represented in the sample as a whole. Calls of active or inactive are those of the source. The calls were made as follows: active = growth percent below 10; inactive = the rest.
Let's look at some compounds and their measured growth.

# annotated cases, reported growth shown
>>> value_observed("CCNC(=O)N1CCc2c(Cl)c3c(c(OC)c2[C@@H]1[C@H]1OCc2c1ccc(OC)c2OC)OCCO3")
"1.79% (active)"
>>> value_observed("CCOc1cccc2c(NC(C)CCCN(CC)CC)c(C)cnc12 (stereo not given)")
"67.9% (inactive)"
>>> value_observed("CC1=CCc2ccccc21")
"83.9% (inactive)"
>>> value_observed("O=C(COc1cccc(/C=C2\\Oc3ccccc3C2=O)c1)c1ccc([N+](=O)[O-])cc1")
"81.7% (inactive)"

Please look at the following compound next.
Answer with growth of C=C(C)[C@@H]1CC[C@]2(C)[C@H](CC[C@@H]3[C@@H]([C@@](C)(O)CCC=C(C)C)CC[C@]32C)[C@@]1(C)CCC(=O)O measured for SNB-75 CNS.
-37.5% [100 µM] (active)

---

tested on: OVCAR-4 ovarian; test: NCI-60 one-dose screen, 48 h; conditions: 10 µM
This is part of a sample that, as a whole, favours compounds with a hit. Of some 83,000 tested, about 20% had one in any assay. Activity calls are given as the source filed them. How the source made its calls: active means growth percent below 10; inactive means the rest.
Can you answer with just one of these options? yes for active, no for inactive

What did this assay record as the result for C#CC(OC(=O)N(C)C)(c1ccccc1)c1ccc(F)cc1 (centres undefined) ?
no

Short answer needed: outcome of this test for O=C1COCCN1c1ccc(NCc2cn(Cc3ccccc3)c3ccccc23)cc1 ?
no

Short answer needed: outcome of this test for C[C@@H]1C[C@H]2C(=O)O[C@@H](C)[C@H](NC(=O)[C@H](Cc3cc(F)cc(F)c3)NC(=O)Nc3ccc(C4CC4)cc3F)C(=O)N3CCC[C@H]3C(=O)N3CCCC[C@H]3C(=O)N[C@@H](C)C(=O)N2C1 ?
yes

What did this assay record as the result for CCCCC(CC)COC(=O)C[N+](C)(C)CCOC(c1ccccc1)c1ccccc1 (centres undefined) ?
no

---

test system: SR leukemia; assay: NCI-60 one-dose screen, 48 h (100 = growth as untreated, 0 = no growth, -100 = all killed); settings: 10 µM unless noted
Compounds without any hit were thinned out: in the full panel of roughly 83,000, 20% have a hit. The source made the active and inactive calls. The calls were made as follows: active = growth percent below 10; inactive = the rest.
PROPERTY MEASURED: growth

Consider the worked cases shown below.
>>> value_observed("COc1cc(NN=C(c2ccc(O)cc2)c2ccc(O)cc2)c([N+](=O)[O-])cc1[N+](=O)[O-]")
"50.6% (inactive)"
>>> value_observed("Clc1ccccc1/C=N\\Nc1ccccn1")
"90.5% (inactive)"
>>> value_observed("CCCCOC(=O)c1c(C)[nH]c(/C=C2\\N=C(c3ccc[nH]3)C=C2OC)c1C")
"14.5% (inactive)"

Look up and report measured growth (SR leukemia) for the following compound: O=C(N=c1n(-c2ccccc2)nc2n1CCN2C1=NCCN1C(=O)c1ccc(Cl)cc1)c1ccc(Cl)cc1
73.9% (inactive)

Give growth for CC1(C)CC[C@]23CC[C@]4(C)[C@H](CC[C@@H]5[C@@]6(C)C/C(=C/c7cccnc7)C(=O)C(C)(C)[C@@H]6CC[C@]54C)[C@H]2[C@H]1OC3=O tested on SR leukemia.
42.4% [100 µM] (inactive)

Report measured growth on SR leukemia; entry: COc1cc2c(c(OC)c1OC)-c1ccc(NNC(N)=S)c(=O)cc1[C@@H](NC(C)=O)CC2
13.2% (inactive)

Lab note: record growth of CC(C)C1=NOC(=O)C1=Cc1cn(-c2ccccc2)nc1-c1cccc([N+](=O)[O-])c1 tested on SR leukemia.
-20.9% (active)

Under SR leukemia, report growth for Fc1cc2[nH]ncc2c2c3c(c(-c4cn[nH]c4)nc12)CCCC3
13.8% (inactive)

---

system: 786-0 renal; assay: NCI-60 one-dose screen, 48 h; conditions: 10 µM unless noted
Compounds without any hit were thinned out: in the full panel of roughly 83,000, 20% have a hit. The source made the active and inactive calls. How the source made its calls: active means growth percent below 10; inactive means the rest.
Pick one: active, inactive

Check out these entries, answers already filled in.
>>> class("Nc1cc(Cl)cc2cccnc12")
"inactive"
>>> class("Fc1ccc(NC(=S)c2ccccc2)cc1")
"inactive"
>>> class("C#CCNC(=O)CC[C@]1(C)[C@H]2CC[C@@H]3[C@@H]([C@@](C)(O)CCC=C(C)C)CC[C@@]3(C)[C@]2(C)CC[C@H]1C(=C)C")
"active"
>>> class("O=C(N/N=C/c1c(Cl)cccc1Cl)c1cccc(Nc2ccnc(C(F)(F)F)c2)c1")
"inactive"
>>> class("CC(C)[C@H]1CCC2=C3CC[C@]45OC(=O)[C@@]6(CCC(C)(C)C[C@H]64)CC[C@@]5(C)[C@]3(C)CC[C@@]21C")
"inactive"

Recorded test outcome, item CCCCCCCCCCCCNC(=S)N/N=C/c1ccccc1O
inactive
